# Tested on: Escherichia coli ATCC 25922
Listed here: items and their measured MIC.

Solved cases (2 shown):
smiles-str	target-system	MIC
CC(C)C[C@H](NC(=O)[C@H](C)NC(=O)[C@H](CCCCN)NC(=O)[C@H](CC(C)C)NC(=O)[C@H](CC(N)=O)NC(=O)[C@@H](N)CC(C)C)C(=O)N[C@@H](CC(C)C)C(=O)N[C@@H](C)C(=O)N[C@H](C(=O)N[C@@H](C)C(=O)N[C@@H](CCCCN)C(=O)N[C@@H](CCCCN)C(N)=O)C(C)C	Escherichia coli ATCC 25922	> 128 µM
CC(C)[C@H](NC(=O)CNC(=O)[C@@H](N)CC(N)=O)C(=O)N[C@@H](CCC(N)=O)C(=O)N1CCC[C@H]1C(=O)N[C@@H](CCCCN)C(=O)N[C@@H](Cc1ccc(O)cc1)C(=O)O	Escherichia coli ATCC 25922	> 248 µM

Next up:
Record for CC[C@H](C)[C@H](NC(=O)[C@H](CCCCN)NC(=O)[C@H](CCCCN)NC(=O)[C@H](C)NC(=O)[C@H](C)NC(=O)[C@H](C)NC(=O)[C@H](CC(C)C)NC(=O)[C@H](CC(C)C)NC(=O)[C@H](C)NC(=O)[C@H](CCCCN)NC(=O)[C@H](CC(C)C)NC(=O)[C@H](CC(N)=O)NC(=O)[C@@H](N)CC(C)C)C(=O)N[C@@H](CC(C)C)C(N)=O under target or system Escherichia coli ATCC 25922: MIC reported as 8 µM
